B1: Intersectin-1, residues 1156 to 1213; numbered along this chain, Q15811 (parent)
chain: AVCQVIGMYDYTAQNDDELAFNKGQIINVLNKEDPDWWKGEVNGQVGLFPSNYVKLTT

Variants of: B1
Test: abundance fitness (aPCA) (normalised: wild type 0, dead -1); higher = more abundant; growth selection in yeast, the domain comes from the species named
Settings: Homo sapiens
abundance fitness reference
Number only, please.

| RESIDUE_STRING | READING |
| --- | --- |
| AVCQVIGMYDYTAQNDDELAFNKGQIINVLNKEDPDWWKGEVNGQVGLFPSNSVKLTT [Y53S] | -0.426 |
| AVCQVIGMYDYTAQNDDELAFNKGQIINVLNKEDPDWWKGEVNGQVGLFPSNYVKLNT [T57N] | -0.028 |
| AVCQAIGMYDYTAQNDDELAFNKGQIINVLNKEDPDWWKGEVNGQVGLFPSNYVKLTT [V5A] | -0.045 |

Look up abundance fitness for this variant: AVCQVYGMYDYTAQNDDELAFNKGQIINVLNKEDPDWWKGEVNGQVGLFPSNYVKLTT [I6Y]
-0.548

Look up abundance fitness for this variant: AVCQVIGMYDYTAQNDDELAFNKGQIINVLNKEDPDWWKGEVNGQTGLFPSNYVKLTT [V46T]
-0.337
